- test_system: T1, human amylin receptor (AMY3) on CHO-K1/Ga15/AMY3 cells (human, UniProt P30988 25-474; O60896 24-148)
- T1 sequence (looked up) 1: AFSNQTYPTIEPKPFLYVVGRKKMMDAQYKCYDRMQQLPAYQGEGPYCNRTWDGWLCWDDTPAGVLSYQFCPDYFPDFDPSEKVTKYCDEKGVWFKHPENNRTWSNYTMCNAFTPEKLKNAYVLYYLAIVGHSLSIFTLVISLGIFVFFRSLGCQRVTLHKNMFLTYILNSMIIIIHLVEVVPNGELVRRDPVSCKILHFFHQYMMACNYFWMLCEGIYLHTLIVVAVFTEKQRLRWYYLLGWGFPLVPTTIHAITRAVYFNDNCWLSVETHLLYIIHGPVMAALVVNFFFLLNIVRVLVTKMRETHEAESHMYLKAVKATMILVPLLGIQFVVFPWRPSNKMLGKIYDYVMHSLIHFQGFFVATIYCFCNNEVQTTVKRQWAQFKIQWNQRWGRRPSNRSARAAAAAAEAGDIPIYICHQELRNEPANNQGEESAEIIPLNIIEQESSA
- T1 sequence (looked up) 2: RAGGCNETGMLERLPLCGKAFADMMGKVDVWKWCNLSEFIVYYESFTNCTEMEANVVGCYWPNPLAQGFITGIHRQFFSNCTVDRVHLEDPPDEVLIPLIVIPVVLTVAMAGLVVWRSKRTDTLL
- assay_details: cell-based or functional assay
*1 amine or outer side, *2 acyl side, *3 side chain or, on linkers, in order; H or OH if unused. Bridges are numbered along the chain shown (N, C = ends). Primed or numbered codes have the meaning given here. Where no end group is shown, it is not given here. Side-chain parts run from the residue outwards. [ ]: non-standard residue; d: D form. The star is where a group is joined. C20 diacid = O=C(O)CCCCCCCCCCCCCCCCCCC(=O)*; γGlu = O=C(O)[C@H](CCC(=O)[*:2])N[*:1]; Hyp = O=C(O)[C@@H]1C[C@@H](O)CN1; Inp′ = not defined here; AEEA = NCCOCCOCC(=O)O
property: EC50, CRE-luciferase assay (nM)
Write down the numeric answer in nM and omit the unit.

binder: {C20 diacid-Inp′-AEEA-AEEA}-KCNTATCATQRLADFLRHSSNNLKPILPPTNVGSNTP-NH2 (disulfide 2-7 (inferred)) [PD191]
EC50, CRE-luciferase assay (nM): 0.061

Problem: Please report EC50, CRE-luciferase assay for the following binder: RCNTATCATQRLADFLRHSSNNLK([γGlu-C20 diacid])PILPPTNVGSNT[3‑Am‑Pro]-NH2 (disulfide 2-7 (inferred)) [PD062]
Solution: 0.374

Problem: Look up and state reported EC50, CRE-luciferase assay for RCNTATCATQRLADFLRHSSNK([AEEA-AEEA-γGlu-C20 diacid])LGPILPPTNVGSNT[Hyp]-NH2 (disulfide 2-7 (inferred)) [PD087]
Solution: 0.032

Problem: Given the binder RCNTATCATQRLADFLRHK([γGlu-C20 diacid])SNNLGPILPPTNVGSNT[Hyp]-NH2 (disulfide 2-7 (inferred)) [PD098] , write its reported EC50, CRE-luciferase assay.
Solution: 0.077
